All values here come from PubChem BioAssay (NCATS).

- assay_info: Cell Viability - H-4-II-E (AID 543);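 further: cells exposed to compound for 40 hours; nearly all actives have a fitted effect of over 35% in size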
- test_conditions: H-4-II-E rat hepatoma viability; series mostly up to 92.2 µM
Results filed as inconclusive are left out. The source made the active and inactive calls. The call rests on the fitted dose curve; in most records, active means well fitted cell-killing curve with a large enough effect; inconclusive means small, poorly fitted or top-dose-only effect; inactive means flat fitted curve, though single readings scatter.
Your response should consist of one outcome taken from active, inactive

1. CCCCCCCCCCCCCCCCCC(=O)O: inactive
2. O=C(O)/C=C\C(=O)O: inactive
3. COc1cc(CNC(=O)CCCC/C=C/C(C)C)ccc1O: inactive
4. CN(C)CCC(c1ccc(Cl)cc1)c1ccccn1 (centres undefined): inactive
5. N=C1N=C(N)c2cc3ccccc3cc21: active
6. S=c1[nH]c2ccccc2s1: inactive
7. C#C[C@]1(O)CC[C@H]2[C@@H]3CCc4cc(O)ccc4[C@H]3CC[C@@]21C: active
8. Nc1ccc(O)c([N+](=O)[O-])c1: inactive
9. CCCOC(=O)c1ccc(O)cc1: inactive
10. c1cnc2c(c1)ccc1cccnc12: active

Status in this test for CC1(C)S[C@@H]2[C@H](NC(=O)[C@H](N)c3ccccc3)C(=O)N2[C@H]1C(=O)O ? inactive

In this assay, the call recorded for Nc1ccc(O)c(C(=O)O)c1 was what? inactive

What call does the record list for CN(C)c1ccc(N=NS(=O)(=O)O)cc1 ? active

Record request — test call for c1ccc2sc(SSc3nc4ccccc4s3)nc2c1 inactive

----------
- Tested on: CP269
- assay_info: qHTS profiling for inhibitors of Plasmodium falciparum proliferation (AID 504749);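 further: 0% = DMSO vehicle and full inhibition = artemisinin control; nearly all actives have a fitted effect of over 60% in size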
- test_conditions: P. falciparum in erythrocytes, SYBR Green DNA, 72 h; series mostly up to 28.7 µM
Results filed as inconclusive are left out. The source made the active and inactive calls. Calls come from the whole dose curve; as a rule, active = well fitted inhibition curve with a large enough effect; inconclusive = small, poorly fitted or top-dose-only effect; inactive = flat fitted curve, though single readings scatter.
Write down the outcome that applies. Available outcomes: TRUE (active), FALSE (inactive)

Some entries whose results are on file:
1. CC(C(=O)O)c1ccc2c(c1)[nH]c1ccc(Cl)cc12 (centres undefined): FALSE
2. CCOC(=O)c1ccccc1O: FALSE
3. CN1[C@@H]2CC[C@H]1CC(OC(=O)C(CO)c1ccccc1)C2 (some centres undefined): FALSE
4. Cc1nc2ccccc2n1Cc1ccc(Cl)cc1: FALSE
5. CN1CCN(c2cc3c(nn2)Oc2ccccc2N3C)CC1: FALSE

What classification did CCCCCCCCCCCCCCCC(=O)OC(C)C end up with in this test? FALSE

For O=C(O)Cc1ccc(-c2ccccc2)cc1 , what call appears in the results of this test? FALSE

Please share the test call associated with COc1ccc(-c2cc(=S)ss2)cc1 . FALSE

I'd appreciate the recorded outcome for Cc1ccc(C(=O)c2ccc(CC(=O)O)n2C)cc1 from this test. FALSE

Please state the recorded outcome for this compound: C#C[C@]1(O)CC[C@H]2[C@@H]3CCc4cc(O)ccc4[C@H]3CC[C@@]21C FALSE

Test call for this compound, please: COc1cc(CNC(=O)CCCC/C=C/C(C)C)ccc1O FALSE

// outcome(item) with item = N=c1ccn2c(n1)O[C@H]1[C@H](O)[C@@H](CO)O[C@H]12 FALSE

How was c1ccc2sc(SSc3nc4ccccc4s3)nc2c1 classified in this test? FALSE

----------
- assay_info: qHTS assay for small molecule agonists of the antioxidant response element (ARE) signaling pathway measured by Nrf2-dependant transcriptional activity - cell viability counter screen (AID 720653); further: on the % scale 0 is the no-effect control and ±100 the full control effect
- test_conditions: ARE-bla HepG2 viability, CellTiter-Glo ATP luminescence, 16 h; active compounds read low
Results filed as inconclusive are left out.
reported_endpoint: max response (%)
Give bare numbers, in %.

These solved cases illustrate the format of a correct answer.
1. O=C(Nc1ccccc1)c1cc([N+](=O)[O-])ccc1Cl: -18.4
2. CC(C)OC(=O)c1cc(C(=O)OC(C)C)cc([N+](=O)[O-])c1: -4.4
3. C=CCCCCCCCCC(=O)O: 1.06
4. N=C1N=C(N)c2cc3ccccc3cc21: -12.6
5. O=C(O)c1cc(O)c(O)c(O)c1: -28.5

Quick batch: max response for everything below.
1. CC1(C)S[C@@H]2[C@H](NC(=O)[C@H](N)c3ccccc3)C(=O)N2[C@H]1C(=O)O
2. Nc1cc(-c2ccncc2)c[nH]c1=O
3. CN1[C@@H]2CC[C@H]1CC(OC(=O)C(CO)c1ccccc1)C2 (some centres not stated)
4. O=C(O)/C=C\C(=O)O

-0.498
-1.18
-6.68
-4.39

Required: max response, one value per compound below.
1. CCCCCCCCCCCCCCCC(=O)OC(C)C
2. c1cnc2c(c1)ccc1cccnc12
3. COc1cc(/C=C/C(=O)CC(=O)/C=C/c2ccc(O)c(OC)c2)ccc1O

[-10.7, -9.05, -2.44]
